Every entry's value here was drawn from the supplement of paper PMC8975748.

test system: Saccharomyces cerevisiae BY4741 SeMeCo community; test: z-score of subpopulation abundance vs DMSO median, subpopulation auxotrophic for UM; higher = larger share of this subpopulation than in DMSO controls; conditions: 10 µM; 24 h; SM minimal medium; subpopulation (auxotrophy): UM
Structures can show the parent of a compound that is named as a salt.
Parameter class (string): assigned from measured z-score of subpopulation abundance. Ranges: Low: < -0.5; Medium: ≥ -0.5 and < 0.3; High: ≥ 0.3

• Cn1c(=O)c2[nH]cnc2n(C)c1=O [Aminophylline] = High
• CN[C@H]1C(=O)N[C@@H]2Cc3ccc(cc3)Oc3cc4cc(c3O[C@@H]3O[C@H](C(=O)O)[C@@H](O)[C@H](O)[C@H]3NC(=O)CCCCCCCCC(C)C)Oc3ccc(cc3Cl)[C@@H](O)[C@@H]3NC(=O)[C@H](NC(=O)[C@@H]4NC(=O)[C@@H](NC2=O)c2cc(cc(O)c2Cl)Oc2cc1ccc2O)c1ccc(O)c(c1)-c1c(O[C@H]2O[C@H](CO)[C@@H](O)[C@H](O)[C@@H]2O)cc(O)cc1[C@@H](C(=O)NCCCN(C)C)NC3=O [Dalbavancin] = Low
• COc1cc(N)c(Cl)cc1C(=O)NC1CCN(CCCOc2ccc(F)cc2)CC1OC (stereo not given) [Cisapride hydrate] = High
• N[C@@H]1CN(c2c(F)cc3c(=O)c(C(=O)O)cn([C@@H]4C[C@@H]4F)c3c2Cl)CC12CC2 [Sitafloxacin Hydrate] = High
• Cc1[nH]cnc1CN1CCc2c(c3ccccc3n2C)C1=O [Alosetron Hydrochloride] = High
• NC(=O)N1c2ccccc2C=Cc2ccccc21 [Carbamazepine] = Medium
• CNC1CCCN(c2c(F)cc3c(=O)c(C(=O)O)cn(C4CC4)c3c2OC)C1 (stereo not given) [Balofloxacin] = High
• CO/N=C(\C(=O)N[C@@H]1C(=O)N2C(C(=O)O)=CCS[C@H]12)c1csc(N)n1 [Ceftizoxime] = Low
• CCC[C@@H]1C[C@@H](C(=O)N[C@@H]([C@H]2O[C@H](SC)[C@H](O)[C@@H](O)[C@H]2O)[C@H](C)Cl)N(C)C1 [Clindamycin HCl] = High
• N=C(N)NS(=O)(=O)c1ccc(N)cc1 [Sulfaguanidine] = Low
• CC[C@H]1OC(=O)[C@H](C)[C@@H](O[C@H]2C[C@@](C)(OC)[C@@H](O)[C@H](C)O2)[C@H](C)[C@@H](O[C@@H]2O[C@H](C)C[C@H](N(C)C)[C@H]2O)[C@](C)(O)C[C@@H](C)/C(=N\OCOCCOC)[C@H](C)[C@@H](O)[C@]1(C)O [Roxithromycin] = High
• CC(C)(C)CC(C)(C)c1ccc(OCCOCC[N+](C)(C)Cc2ccccc2)cc1 [Benzethonium Chloride] = Medium
• Cc1ncc([N+](=O)[O-])n1CCO [Metronidazole] = Low
• CN[C@@H]1[C@H](O[C@H]2[C@H](O[C@H]3[C@H](O)[C@@H](O)[C@H](NC(=N)N)[C@@H](O)[C@@H]3NC(=N)N)O[C@@H](C)[C@]2(O)CO)O[C@@H](CO)[C@H](O)[C@H]1O [Dihydrostreptomycin sulfate] = Medium
• O=c1[nH]c(=O)n([C@H]2C[C@H](O)[C@@H](CO)O2)cc1I [Idoxuridine] = Medium
